Origin of the recorded values: ChEMBL document CHEMBL1201862

GI50 reference
Test system: A498
procedure.summary: NCI tumour cell line growth inhibition, 48 h
The source made the active and inactive calls. Rule as the data show it: active = GI50 up to about 1.1 µM and inactive = higher.

| compound | GI50 |
| --- | --- |
| O=C1Sc2ccccc2NC1=C(C(=O)c1ccccc1)C(=O)c1ccccc1 | 34.8 µM (inactive) |

input: Value lookup for GI50; key = CCCCCCCCCCCCC(Br)C(C)=O (stereo unspecified)
output: > 100 µM (inactive)

input: Quick one: GI50 for C[N+]12CCCCC1C(COc1cccc3cccnc13)CCC2 (stereo unspecified) ?
output: > 100 µM (inactive)

input: Would you mind telling me what GI50 value was observed for O=c1c(C(c2cccc(C(c3c(O)oc4ccccc4c3=O)c3c(O)oc4ccccc4c3=O)c2)c2c(O)oc3ccccc3c2=O)c(O)oc2ccccc12 ?
output: > 100 µM (inactive)

input: What measured GI50 goes with O=C1NC2OC(C(O)CO)C(O)C2O1 (stereo unspecified) ?
output: > 100 µM (inactive)

input: Which measured GI50 value corresponds to CN(C)c1nc2n(CCO)ccnc-2c(=O)n1 ?
output: > 100 µM (inactive)

###

Tested on: SF-539
procedure.summary: NCI tumour cell line growth inhibition, 48 h
Active and inactive are the calls of the source. Rule as the data show it: active = GI50 up to about 1.1 µM and inactive = higher. Numbered stars: 1 amine (or outer) side, 2 acyl side, 3 side chain; on linkers, the order of the positions; unused ones are H or OH. Bridge positions count the residues as written; N and C are the ends. Square brackets hold non-standard residues; d marks the D form. Peptide text beside a SMILES is read from it. * marks the point of attachment. ξ: configuration not given here. X33 = O=C(C(CCCCNO[*:3])N[*:1])[*:2]; Fmoc = O=C(OCC1c2ccccc2-c2ccccc21)*; ξW = NC(Cc1c[nH]c2ccccc12)C(=O)O; ξP = O=C(O)C1CCCN1
Field 'call' accepts active, inactive

| molecule | test.target | group |
| --- | --- | --- |
| O=C1NC(=O)c2ccc([N+](=O)[O-])c3cccc1c23 | SF-539 | inactive |
| O=C(CCSC(CC(=O)c1ccc(Cl)cc1)c1ccc(Cl)cc1)Nc1ccc(Cl)cc1 (stereo not given) | SF-539 | inactive |
| c1ccc(-c2cc3[nH]c4ccccc4[nH]c-3cc(-c3ccccc3)nn2)cc1 | SF-539 | inactive |
| CC(C)(C)C(=O)/C=C(\OB(F)F)C(C)(C)C | SF-539 | inactive |
| COc1cc([C@@H]2c3cc4c(cc3[C@@H](Nc3ccccc3C(=O)c3ccccc3)[C@H]3COC(=O)[C@H]23)OCO4)cc(OC)c1OC | SF-539 | active |
| CC(=O)O[C@H]1CC[C@@]2(C)C(=CC[C@H]3[C@@H]4C[C@H](N5CCCC5)[C@H](OC(C)=O)[C@@]4(C)CC[C@@H]32)C1 | SF-539 | inactive |

input: Per the assay record, what outcome was assigned to O=c1c2cc(I)ccc2nc(S)n1Cc1ccccc1 ?
output: inactive

input: Kindly provide the recorded test outcome for the following molecule: NC(=O)CNC(=O)C1CCCN1C(=O)C1CCCCNOC(=O)CC[C@@H](NC(=O)OCC2c3ccccc3-c3ccccc32)C(=O)NC(Cc2c[nH]c3ccccc23)C(=O)N1 (stereo not given in full) (Fmoc-[dE][ξW][X33][ξP]G-NH2; ester 1-3)
output: inactive

input: Which outcome did this test record for the molecule COc1cc(OCc2ccc3nc(-c4ccccc4)c(N)nc3c2)cc(OC)c1OC ?
output: inactive

###

Tested on: 786-0
procedure.summary: NCI tumour cell line growth inhibition, 48 h
Activity calls are given as the source filed them. Rule as the data show it: active = GI50 up to about 1.1 µM and inactive = higher.
Items are presented alongside their recorded GI50.

| compound | GI50 |
| --- | --- |
| COc1cc(OC)c2c(c1)OC(c1cccnc1)C(c1ccccc1)C2=O (centres undefined) | > 100 µM (inactive) |
| O=c1c(C(c2cccc(C(c3c(O)oc4ccccc4c3=O)c3c(O)oc4ccccc4c3=O)c2)c2c(O)oc3ccccc3c2=O)c(O)oc2ccccc12 | 17.7 µM (inactive) |
| CCc1cccc(C)c1NC(=O)C1=C(C)NC(C)=C(C(=O)Nc2c(C)cccc2CC)C1c1ccc([N+](=O)[O-])cc1 | 72.8 µM (inactive) |
| C/C=C1/CN2CCC3(O)c4ccccc4N4C=C(C(=O)OC)C1CC2C43O (centres undefined) | > 100 µM (inactive) |
| COc1cc(/C=C2\CCC/C(=C\c3ccc(OC(=O)CCCCC4CCSS4)c(OC)c3)C2=O)ccc1OC(=O)CCCCC1CCSS1 (centres undefined) | > 100 µM (inactive) |
| O=c1[nH]c(=O)n(C2CC(O)C(CO)O2)cc1/N=N/NCc1ccccc1 (centres undefined) | > 100 µM (inactive) |
| CCOC(=O)N/N=C(\CC)NO | > 100 µM (inactive) |
| COC(=O)c1c(OC(C)=O)ccc2c1c1c(n2C)C(=O)c2ccccc2C1=O | 25.5 µM (inactive) |
| CCCOCN1COCN/C1=N\C#N | 22 µM (inactive) |
| CC(=O)c1sc2c(c1OC(=O)c1ccc(Cl)cc1)c(=O)n(-c1ccccc1)c(=S)n2-c1ccccc1 | 3.52 µM (inactive) |

input: Any idea what its GI50 is? The compound is O=c1[nH]c(NCc2ccncc2)nc2[nH]cnc12
output: > 100 µM (inactive)

input: Suppose we examine the compound Nc1nc(Cl)cc(/N=N\c2ccccc2)n1 ; what GI50 value has been reported?
output: 30.6 µM (inactive)

input: Please report the recorded GI50 for Nc1ncnc2c1ncn2C1OC(CO)=CC1O (centres undefined) .
output: > 37.5 µM (inactive)

input: Return reported GI50; argument: O=c1oc2cc(O)ccc2cc1-c1nc2ccccc2o1
output: 30.5 µM (inactive)

input: Look up GI50 for this compound: CC1=CC[C@@]2(C)[C@@H]([C@@H]1C)[C@H]1CC[C@@H]3[C@@]4(C)CC[C@H](O)C(C)(C)[C@@H]4CC[C@@]3(C)[C@]1(C)C[C@@H]2O
output: 12.4 µM (inactive)

input: Give its GI50 value. Item: Cc1ccc(NC(=O)CC/C(CC(=O)C(C)(C)C)=N\Nc2ccc([N+](=O)[O-])cc2[N+](=O)[O-])cc1C
output: 79.6 µM (inactive)

###

Test system: NCI-H460
procedure.summary: NCI tumour cell line growth inhibition, 48 h
The source made the active and inactive calls. Cut-off read from the data, not from the text of the source: active = GI50 up to about 1.1 µM and inactive = higher.
measured.property: GI50

input: For the molecule COc1cc(CCc2cccnc2)cc(OC)c1OC , what GI50 is on record?
output: > 100 µM (inactive)

###

Attribute: GI50
System: CCRF-CEM
procedure.summary: NCI tumour cell line growth inhibition, 48 h
Activity calls are given as the source filed them. No stated cut-off is given here; in the data, active = GI50 up to about 1.1 µM and inactive = higher.

| compound | test.target | GI50 |
| --- | --- | --- |
| COc1cc2c(cc1OC)[C@@H]([C@H](O)c1ccccc1)NCC2 | CCRF-CEM | > 100 µM (inactive) |
| Cc1cn(S(=O)(=O)c2ccccc2)c2c(OCc3ccccc3)cc(NC(=O)c3cc4cc([N+](=O)[O-])ccc4s3)cc12 | CCRF-CEM | 38.9 µM (inactive) |
| CCOC(=O)CC1=CSC2=NCCN12 | CCRF-CEM | > 100 µM (inactive) |

input: Please report the recorded GI50 for COc1ccc(C2CC(=O)CC(c3ccc(OC)cc3)C23C(=O)NC(=O)NC3=O)cc1 (centres undefined) .
output: 32.7 µM (inactive)

###

Test system: M14
procedure.summary: NCI tumour cell line growth inhibition, 48 h
The source made the active and inactive calls. Rule as the data show it: active = GI50 up to about 1.1 µM and inactive = higher.
Each entry below carries its recorded GI50.

| compound | GI50 |
| --- | --- |
| CCc1c(Cc2cc(C)cc(C)c2)n2c(nc1=O)SCC2CBr (stereo unspecified) | > 50 µM (inactive) |
| CC(C)OC(=O)C1Cc2c([nH]c3ccccc23)C(c2ccccc2)N1 (stereo unspecified) | 81.7 µM (inactive) |
| CC(=O)OC1CC2OC(Cc3ccccc32)O1 (stereo unspecified) | 79.1 µM (inactive) |
| COc1cc2c(cc1OC)[C@@H]([C@H](O)c1ccccc1)NCC2 | > 100 µM (inactive) |
| COC(=O)[C@@H]1CN(C(=O)c2ccccc2)C(=O)N1 | > 100 µM (inactive) |

input: Would you kindly share the measured GI50 for N#CC(c1ccc(Cl)cc1)c1cccc(Cl)n1 (stereo unspecified) ?
output: 79.8 µM (inactive)

input: Item under review: N#CC1(C=O)c2ccccc2C=CN1C(=O)c1ccccc1 (stereo unspecified) . Reported GI50?
output: 26.8 µM (inactive)

input: Reported GI50 for CCCCC/C(=N\c1[nH]nnc1C(N)=O)OCC : what is it?
output: > 100 µM (inactive)

input: I would be grateful if you could share the reported GI50 for Cc1ccc(/C=C2\CNC/C(=C\c3ccc(C)cc3)C2=O)cc1 .
output: 2.26 µM (inactive)

input: What does the data say about its GI50? Entry: O=C1NC(=O)C(CC(C(=O)C(=O)Nc2ccccc2Cl)C(=O)c2ccc3ccccc3c2)C(=O)N1 (stereo unspecified)
output: > 100 µM (inactive)

input: What value of GI50 has been recorded for this entry: CC1(C)C=[N+]([O-])C(C)(C)N1O
output: > 10 µM (inactive)
